B1: library; a variant is named by its letters at N, in order (parent)
chain: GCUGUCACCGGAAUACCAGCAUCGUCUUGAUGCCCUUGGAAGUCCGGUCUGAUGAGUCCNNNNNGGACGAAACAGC

Variants of: B1
protocol: normalized RNA/DNA level with ligand (relative to sTRSVctl = 100) (log10 (% of sTRSVctl)); higher = less ribozyme self-cleavage, higher mRNA level
condition.set: ligand concentration (+) RNA-Seq: 5 mM, HEK293T, reporter: mCherry (pCS4076), ligand present: yes
experimental.readout: normalized RNA/DNA level with ligand (log10)
Could you keep your reply to the number by itself?

In plain terms, UUGCG has a documented normalized RNA/DNA level with ligand (log10) of 1.95

Per the record, UGUCU has normalized RNA/DNA level with ligand (log10) of 2.02

Record GACAA . Reported normalized RNA/DNA level with ligand (log10): 1.94

The variant listed as GUCUG shows normalized RNA/DNA level with ligand (log10) equal to 1.96

# variant CCAGA ; its normalized RNA/DNA level with ligand (log10) = 1.95

In plain terms, UCUUC has a documented normalized RNA/DNA level with ligand (log10) of 2.03
